- TESTED_SYSTEM: PRMT5/MEP50 (Homo sapiens, UniProt O14744)
- Construct: Expressed full-length human Flag-PRMT5/6His-MeP50 protein complex was purified; made in house; host or cells: Spodoptera frugiperda (SF9) insect cells, baculovirus (pDEST8)
- Sequence (O14744 with tags, fused parts or gaps): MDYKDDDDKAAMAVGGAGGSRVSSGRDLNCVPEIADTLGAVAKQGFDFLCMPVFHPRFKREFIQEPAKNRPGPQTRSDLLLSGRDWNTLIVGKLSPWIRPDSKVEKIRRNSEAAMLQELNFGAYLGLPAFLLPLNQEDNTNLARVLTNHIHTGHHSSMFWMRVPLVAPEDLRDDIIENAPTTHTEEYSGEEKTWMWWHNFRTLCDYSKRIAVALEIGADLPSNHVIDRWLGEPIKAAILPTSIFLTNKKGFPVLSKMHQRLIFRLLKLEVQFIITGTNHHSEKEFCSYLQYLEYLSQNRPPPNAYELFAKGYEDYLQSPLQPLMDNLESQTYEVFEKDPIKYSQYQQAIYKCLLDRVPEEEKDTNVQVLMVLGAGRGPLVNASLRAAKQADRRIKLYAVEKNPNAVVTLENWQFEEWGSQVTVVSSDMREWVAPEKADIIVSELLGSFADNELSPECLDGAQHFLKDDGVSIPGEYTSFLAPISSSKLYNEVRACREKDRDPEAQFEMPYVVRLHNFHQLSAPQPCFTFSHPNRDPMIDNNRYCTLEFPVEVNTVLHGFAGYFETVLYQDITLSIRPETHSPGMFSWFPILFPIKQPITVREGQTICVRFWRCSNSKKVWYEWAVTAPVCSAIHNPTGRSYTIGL
- Sequence (Q9BQA1 with tags, fused parts or gaps partner limits assumed): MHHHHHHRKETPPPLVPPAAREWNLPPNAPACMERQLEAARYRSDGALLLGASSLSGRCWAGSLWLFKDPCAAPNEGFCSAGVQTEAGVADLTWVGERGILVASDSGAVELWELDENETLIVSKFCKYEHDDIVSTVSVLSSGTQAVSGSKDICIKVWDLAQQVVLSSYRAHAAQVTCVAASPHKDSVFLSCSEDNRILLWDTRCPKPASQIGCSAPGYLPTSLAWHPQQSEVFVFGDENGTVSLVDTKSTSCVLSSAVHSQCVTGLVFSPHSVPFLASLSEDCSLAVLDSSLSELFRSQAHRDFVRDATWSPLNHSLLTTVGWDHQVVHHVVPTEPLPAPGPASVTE
- PROTOCOL_TEXT: PRMT5 Biochemical Assay (PRMT5/MEP50 enzyme assay on peptide substrate, 3H-SAM Flashplate)
- EXPERIMENTAL_SETUP: Table D-2; read-out: Biochemical IC50
pIC50: −log10 of the molar value.
MEASUREMENT_LABEL: pIC50

Incoming: Please report the recorded pIC50 for CC(C)Oc1ccc(F)c(-c2cccc(OCC(O)CN3CCc4ccccc4C3)c2)c1 (stereo not drawn) .
Outgoing: 6.00 to 7.00

Incoming: Record request: pIC50 value, item CN(C)c1ccc(-c2cccc(OCC(O)CN3CCc4ccccc4C3)c2)cc1 (stereo not drawn)
Outgoing: 6.00 to 7.00

Incoming: // lookup pIC50 for NC(=O)c1ccc(-c2cccc(OCC(O)CN3CCc4ccccc4C3)c2)cc1 (stereo not drawn)
Outgoing: 6.00 to 7.00

Incoming: Which pIC50 reading was recorded for the compound OC(COc1cccc(-c2ccc3ncoc3c2)c1)CN1CCc2ccccc2C1 (stereo not drawn) ?
Outgoing: 6.00 to 7.00

Incoming: Which measured pIC50 value corresponds to O=C(Nc1ccccn1)c1cccc(OCC(O)CN2CCc3ccccc3C2)c1 (stereo not drawn) ?
Outgoing: 6.00 to 7.00

Incoming: Which value of pIC50 has been reported for O=C(Cn1cnc2ccc(-c3cccc(OCC(O)CN4CCc5ccccc5C4)c3)cc21)N1CCOCC1 (stereo not drawn) in the records?
Outgoing: 6.00 to 7.00

Incoming: Data request, read-out pIC50, for Cn1cc2ccc(-c3cc(NCC(O)CN4CCc5ccccc5C4)ncn3)cc2n1 (stereo not drawn)
Outgoing: 6.00 to 7.00

Incoming: Which pIC50 value is on record for Cn1ncc2c1CN(c1cccc(OCC(O)CN3CCc4ccccc4C3)c1)CC2 (stereo not drawn) ?
Outgoing: 6.00 to 7.00

Incoming: Quick one: pIC50 for Cn1cnc2ccc(-c3cc(NCC(O)CN4CCc5ccccc5C4)ccn3)cc21 (stereo not drawn) ?
Outgoing: 6.00 to 7.00

Incoming: # input compound: OC(COc1cccc(-c2ccc3c(c2)OCCO3)c1)CN1CCc2ccccc2C1 (stereo not drawn) ; wanted: its pIC50
Outgoing: 6.00 to 7.00

Incoming: Query: pIC50; subject: OC(COc1cccc(CNC2CCNCC2)c1)CN1CCc2ccccc2C1 (stereo not drawn)
Outgoing: 5.00 to 6.00

Incoming: Consider the compound shown here: OC(COc1cccc(-c2ccccc2C(F)(F)F)c1)CN1CCc2ccccc2C1 (stereo not drawn) What is its recorded pIC50?
Outgoing: 6.00 to 7.00

Incoming: Bench note: what pIC50 did Cn1cnc(C(=O)Nc2cccc(OCC(O)CN3CCc4ccccc4C3)c2)c1 (stereo not drawn) show?
Outgoing: 5.00 to 6.00

Incoming: Can you share its pIC50? I mean this compound: Cn1cnc2ccc(-c3cncc(NCC(O)CN4CCc5ccccc5C4)n3)cc21 (stereo not drawn)
Outgoing: 6.00 to 7.00

Incoming: Entry OC(COC1CCCC1)CN1CCc2ccccc2C1 (stereo not drawn) : reported pIC50 = ?
Outgoing: 5.00 to 6.00

Incoming: Given CNC(=O)c1cccc(-c2cccc(OCC(O)CN3CCc4ccccc4C3)c2)c1 (stereo not drawn) , state its recorded pIC50.
Outgoing: 6.00 to 7.00

Incoming: For the compound OC(COc1ccc(OCc2ccccc2)cc1)CN1CCc2ccccc2C1 (stereo not drawn) , what pIC50 is on record?
Outgoing: 5.00 to 6.00

Incoming: Name the recorded pIC50 for OC(COc1cccc(-c2ccc(C(F)(F)F)cc2C(F)(F)F)c1)CN1CCc2ccccc2C1 (stereo not drawn) .
Outgoing: 6.00 to 7.00
